src = the RNAGym collection of RNA variant scans (doi:10.7554/elife.90254)

B1: LINE1-full (parent)
chain: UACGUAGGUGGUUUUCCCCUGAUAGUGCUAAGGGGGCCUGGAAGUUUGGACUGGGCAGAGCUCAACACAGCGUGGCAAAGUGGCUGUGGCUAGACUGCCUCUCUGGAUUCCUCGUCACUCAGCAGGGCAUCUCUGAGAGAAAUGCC

variants of: B1; assay: self-cleavage, relative activity (ratio to wild type); higher = more cleavage; in vitro, sequencing; the parent is a self-cleaving ribozyme
Readings of self-cleavage for the listed variants
measured.property: self-cleavage

• U15C G27A = 1.1
• U26G A69G = 0.17
• G55U C113U = 0.07
• G34U U91A = 0.49
• U47C C51U = 1.14
• A24G A92G = 0.2
• U39A U102A = 1.62
• G55A A79G = 0.4
• G36U U62A = 0.03
• C128U A141U = 1.62
• U73A U100A = 0.97
• U45C G126A = 1.32
• A78G U108C = 1.64
• G89A U132C = 0.06
• A31G A124G = 1.09
• G93A A140G = 0.06
• U1C A22U = 0.54
• A77C U96C = 0.09
• G27A G53U = 1.14
• G114U A136G = 1.49
• A22U G122A = 1.19
• C51U U62A = 0.07
• C123U A142G = 1.32
• U9C U13A = 1.11
• C63U A141G = 0.36
• U45C U112C = 1.27
• A94C C95U = 0.02
• U73A A117U = 1.81
• C76U U115C = 2.12
• U81C G127A = 2.07
• U85C U115C = 0.21
• A24U U39A = 0.84
• U119C A141U = 2.27
• U39G A92U = 1.06
• U46C A78G = 1.62
• G34A A140G = 0.5
• A77U A140G = 1.37
• U1C U15C = 0.92
• G60U U62C = 0.08
• U108G A140G = 0.29
• A107G A141C = 1.51
• U5A A129G = 0.79
• A69U U112A = 0.04
• U39A A77G = 2.32
• U20A = 1.21
• C63A A140G = 0
• C66U U104C = 0.05
• A6U A57G = 0
• U109A A136G = 1.4
• A2G A142U = 1.12
• A31C U47A = 1.12
• A22G A121U = 1
• G8U A42U = 1.17
• C145G = 0.55
• U45C A92G = 0.08
• G70U = 0.05
• U12G U85G = 0.21
• U104A = 1.14
• A22U G40U = 0.87
• U46A U104C = 1.96
• U26A U96C = 0.16
• C28U C38U = 1.06
• U9A U134A = 1.17
• A57G G106U = 0.58
• U115G A129U = 1.34
• G10U U62C = 0.06
• U14C A64G = 0.33
• U14G U85A = 0.28
• A129G C146U = 1.59
• U13C G44A = 0.75
• U45A A94G = 0.05
• U5A A67G = 0.7
• A117G G122U = 1.52
• G49A A138G = 1.11
• U91A U100C = 0.96
• A50G U134G = 0.19
• G53A U108A = 0.14
• A65U A78U = 0.2
• U12C U26C = 1.39
• C120U A129C = 0.82
• U102A G127A = 1.08
• U26A U62A = 0.05
• U96A A142G = 0.08
• A42G = 1.38
• G33C U104A = 1.27
• U20C A31G = 1.16
• C16A A136G = 0.57
• U26A U39A = 0.99
• U81A U87C = 0.19
• A30U A79G = 0.91
• C37U A121G = 1.62
